method summary: protein stability index of a GFP-peptide fusion (GPS, HEK-293T) (PSI 1-6); higher = more stable;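 further: 24-mer peptide tiles fused after GFP, lentivirally expressed, FACS-sorted into six equal bins by GFP/DsRed ratio, decoded by Illumina sequencing, PSI is the read-weighted mean bin number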
experimental conditions: treatment: DMSO; c terminus: a fixed tail appended
parameter: protein stability index
Form field (numeric): enter value without unit.

In the examples that follow, each entry is paired with its recorded protein stability index.
sequence input	parameter	numeric readout
LGDSGLGPWQLNVFVCRVSAVLFY [P2RY14]	protein stability index	3.32
TNALTHTVAMSTLNFCGPNVINHF [OR3A1]	protein stability index	2.41
VLYALRSFDYEQFHELQMQVTASD [PCDHGA10]	protein stability index	2.26
SMKHTATARFQRNHRLISEILSES [SMARCE1]	protein stability index	2.95
GVTGWCTGFIFQKVGKLAATAVGG [FUNDC2]	protein stability index	2.17

Request: I have this sequence here, ELFQLQTYSLPPFLKAVLRQERVS [CDS1] , and I need its recorded protein stability index.
Result: 1.99

Request: Need protein stability index of EFEQFESTIGFKLPNHRAAKRLWK [EPB41L3] , thanks.
Result: 3.17

---

method summary: protein stability index of a GFP-peptide fusion (GPS, HEK-293T) (PSI 1-6); higher = more stable
experimental conditions: treatment: DMSO; c terminus: a fixed tail appended
Listing of entries alongside the reported protein stability index.
// response body must contain only the number

Solved cases (5 shown):
sequence input	numeric readout
FNIFDWLGRSLTAVFMWPGKDSRW [SLC29A1]	2.45
KPFVSVFRHLRLQYIISDLASARI [GMCL1]	3.07
EELEQEELNKKMTNIRLPNVPSSS [CHMP4C]	5.27
RALQERLGQQQRDMRRDEEGSLCA [FBF1]	4.95
QGDPKGEMAATPAGFAQLTHLLMG [HDAC6]	3.1

Request: protein stability index lookup needed for RGFVFGGRYRDARMNDLHYLNLDT [KLHDC2] , thanks.
Result: 2.71

Request: Which protein stability index value belongs to LMKHKSRKRRLFCTMEPEPVQPGM [TRIM35] ?
Result: 3.51

---

method summary: protein stability index of a GFP-peptide fusion (GPS, HEK-293T) (PSI 1-6); higher = more stable
experimental conditions: treatment: MLN4924 1 uM, 8 h; c terminus: a fixed tail appended
parameter: protein stability index
Write no unit; give the number alone.

Below, each entry is followed by its recorded protein stability index result.
sequence input	protein stability index
PPLEDFEVLDGVEDAEGEEEEEEE [FKBP8]	5.61
RCYYYEDTISTIKSVAWEGGACPA [NCF4]	2.43

Shifting focus to the sequence that follows.
Request: // protein stability index lookup, key: LDPQPITDEEEGLIWVVGPVLAVV [PTPRD]
Result: 2.42

---

Below, each entry is listed with its recorded protein stability index.
method summary: protein stability index of a GFP-peptide fusion (GPS, HEK-293T) (PSI 1-6); higher = more stable
experimental conditions: treatment: MLN4924 1 uM, 8 h; c terminus: a fixed tail appended
Returns: the value as a bare number; no unit string appended.

Reference set (10 entries):
sequence input	parameter	numeric readout
YGRIVEVLLMKDRETNKSRGFAFV [RBMX]	protein stability index	2.48
YEKFKLYLTIILILISFTCRFLLN [TMEM120A]	protein stability index	2.91
LTNSNLPEEELDFFEILRLFFPVI [CNOT7]	protein stability index	2.47
NHDSHMAKERAHSTASHSSSNSED [PDZK1]	protein stability index	5.61
LCSDLEEAPEAELSQAPAEGPDLV [HES6]	protein stability index	5.57
YQNSIDDRLLVERIFAQYMVPHNL [PDS5B]	protein stability index	2.46
MRVDLRAGDEAVFAQYDSFHVDSA [TNXB]	protein stability index	3.22
ASREENQAGPEATTSDPQDLDMKK [PALM]	protein stability index	5.43
LEKNHPEEFCEFVKSNTEQMREAF [ZBED1]	protein stability index	4.63
SKKGLSFFAFEHSEEYQQAQHKFL [TCF25]	protein stability index	3

Request: Which measured protein stability index value corresponds to RSPIIDVKNDRDRVGHKSIPMRNL [SERPINB5] ?
Result: 4

Request: // query protein stability index value for entry LDKELRAMLREKFPEFCSSPSPPV [INTS3]
Result: 3.42

Request: Please look up its protein stability index: VERAQQVAVQEQEIARREKELEAR [FLOT1]
Result: 5.3

---

method summary: protein stability index of a GFP-peptide fusion (GPS, HEK-293T) (PSI 1-6); higher = more stable
experimental conditions: treatment: MLN4924 1 uM, 8 h; c terminus: a fixed tail appended
Entries and their measured protein stability index follow.

Reference set, count: 6
sequence input	parameter	result
KMLSKAVDALKSDKKVRTIIIRSE [AUH]	protein stability index	2
AKHLIASMLSKNPEDRPSLDDIIR [PLK2]	protein stability index	2.79
PDLNILEDSAESRPWRAGVLAEGD [PSD2]	protein stability index	4.99
YGICREPVGLVMEYMETGSLEKLL [RIPK4]	protein stability index	2.22
PVVKALFGASAAGGLSPVTNLTVT [CDC25A]	protein stability index	2.65
GVVQALIVGYAFHFPHLLSPQIQR [TMEM175]	protein stability index	3.25

Turning now to a further record.
Request: Requested read-out: protein stability index. Entry: AVTDLLGRRQRKSEKRRDPPNGPN [WASL]
Result: 4.31

---

method summary: protein stability index of a GFP-peptide fusion (GPS, HEK-293T) (PSI 1-6); higher = more stable
experimental conditions: treatment: DMSO; c terminus: a fixed tail appended
parameter: protein stability index
Reply with just the number.

sequence input	parameter	numeric readout
DLEDPLGGLLSYDEGGITKQPPVT [FBF1]	protein stability index	4.41
TIDDTISKFRRKDREDSPERCSDS [CLINT1]	protein stability index	5.5
DGHRPEWTFYPRFSSNIHTYHVGK [SPATS1]	protein stability index	2.96
RNLRTQQEIEDKMKGFSFKEDTLL [C8orf76]	protein stability index	4.11

Then this sequence:
Request: Which measured protein stability index value corresponds to VVGAKKIYAHRVILSACSPYFRAM [KLHL20] ?
Result: 2.78

---

method summary: protein stability index of a GFP-peptide fusion (GPS, HEK-293T) (PSI 1-6); higher = more stable
experimental conditions: treatment: DMSO; c terminus: a fixed tail appended
parameter: protein stability index
Returns: the value as a bare number; no unit string appended.

Request: Quick one: protein stability index of RDEVAFHTAKCEKLQKEKEELERR [MTUS2] ?
Result: 5.61

Request: So what's the measured protein stability index for this one? PLRVDLILENTSKVPAPKDVLAHQ [NOP53]
Result: 3.28

Request: Using the record for LDDIYYFGGQNAHNQIAIYAHQPR [FUT8] , report its protein stability index.
Result: 2.87

Request: // returns reported protein stability index for input DFLIRDSESSPSDFSVSLKASGKN [NCK2]
Result: 4.25

Request: I would be grateful if you could share the reported protein stability index for TSDGYTALHLAARNGHLATVKLLV [RIPK4] .
Result: 2.35

Request: Tell me the measured protein stability index of LMLGKTSISDLSEHVFDLILELYN [PDS5B] , please.
Result: 2.59

Request: Which value of protein stability index has been reported for SMQCKVILLDGSEYTCDVEKRSRG [EPB41L3] in the records?
Result: 3.04

Request: # get_value(readout='protein stability index', item= GLSDPGKIKRLRSQVQVSLEDYIN [HNF4A] )
Result: 2.78

Request: What value of protein stability index has been reported for the following sequence? SLPTTAPSNSSSLTLSGIKEDNSL [MYBL2]
Result: 4.91

Request: Sample PVCSALLDPVLQAPGTGPAQTELL [FANCE] — what was its protein stability index?
Result: 4.2

---

Each record here notes measured protein stability index.
method summary: protein stability index of a GFP-peptide fusion (GPS, HEK-293T) (PSI 1-6); higher = more stable
experimental conditions: treatment: DMSO; c terminus: a fixed tail appended
Number only, please.

Example results:
sequence input	protein stability index
ALPVPVIVSNFNYFYHRETENEEQ [KCNA4]	3.54
KDIAHFWELGGGTSLLDLISIPIT [DYNC2LI1]	2.54
KDSVMQQNLVYYRFHRARWGLEEE [P3H4]	2.51
LLMAVVSMFTLPVVYVKHQAQIDQ [RTN1]	2.99

Request: # input sequence: LKSLIRLVKHWYQNCKKKLGKLPP [OAS1] ; wanted: its protein stability index
Result: 2.94

Request: What value of protein stability index has been recorded for this entry: EEALKDEEERAQDRIATTDDTTAM [MAGEA10]
Result: 5.7

Request: What value of protein stability index has been reported for the following sequence? EPEEPSEIPERRDSGVGASLTRSN [DLC1]
Result: 5.51

Request: Could you share which protein stability index value was measured for QFRVIGPRHPIRALVGDEVELPCR [MOG] ?
Result: 3.63

Request: Any idea what protein stability index was measured for ALEKLRSEMEEEKRQAVNKAVANM [ZMYND11] ?
Result: 4.42

Request: // query protein stability index value for entry HLFLLGYSDGADDTFAAYTREQLY [MCOLN1]
Result: 2.08

Request: Tell me the measured protein stability index of AGIMLLALVCLLSCLLPSSEAKLY [SPACA3] , please.
Result: 2.94

Request: # lookup: protein stability index of GLIISGPILQEGMDEEKLKQLNCV [DLC1]
Result: 3.52

Request: Report protein stability index for TMGAVVLSSTLLSFSTAIGRTCIT [MFSD9] please.
Result: 2.98

Request: Requested read-out: protein stability index. Entry: SHTLEERVVHWYFKLLDKNSSGDI [SMOC2]
Result: 2.44

Request: Param item = GPGGRRAGEPGHSPADYLRFQDLV [DYRK1B] ; retrieve measured protein stability index.
Result: 3.07

Request: Please report the recorded protein stability index for ITPQGVAMRAGVLADDHLIEVNGE [PDZK1] .
Result: 4.72

Request: Endpoint output: protein stability index of MKCQSYCEPPSYRPMHHEDFKEDL [CDC25A] . Value?
Result: 3.77

Request: Name the recorded protein stability index for FHNLRNTLDGYGIHPKSIDLDNYF [NFE2L1] .
Result: 2.31

Request: Look up protein stability index for this sequence: EPQTEHQQESESEIDSVPKTQSEL [MIA2]
Result: 5.46
